System: NCI-H522 lung
assayRemarks: NCI-60 one-dose screen, 48 h (100 = growth as untreated, 0 = no growth, -100 = all killed)
testParameters: 10 µM unless noted
Experimental: Growth inhibition of the NCI-H522 human Non-Small Cell Lung tumor cell line is measured as a screen for anti-cancer activity. Cells are grown in 96 well plates and exposed to the test compound for 48 hours. Compounds are tested at a single concentration, which is 10^-5 M for most compounds. The reported endpoint is percent growth (GI% or GIPRCNT), where numbers from 0 - 100% represent growth inhibition, and numbers from -100% - 0 represent cell death. […]
This is part of a sample that, as a whole, favours compounds with a hit. Of some 83,000 tested, about 20% had one in any assay.
Classes based on growth: b0 = under 20%, b1 = from 20% up to 80%, b2 = 80% and over

Query: Lab note: which band did CN(C)c1ccc2cc(-c3ccccc3F)c(N)nc2c1 land in?
Response: b0

Query: Lab note: which band did Cc1cc(C(c2ccccc2)c2ccccc2)ccc1NS(=O)(=O)c1ccccc1 land in?
Response: b2

Query: Lab note: which band did COC(=O)Nc1nc2ccc(C(=O)C3CC3)cc2[nH]1 land in?
Response: b0

Query: Lab note: which band did O=C(O)c1ccc(CO)o1 land in?
Response: b2

Query: Lab note: which band did Cc1nc(Nc2ccc(S(=O)(=O)Nc3cc(C)on3)cc2)c2ccccc2n1 land in?
Response: b2

Query: Lab note: which band did C=C1c2c(C)nn(-c3ccc(NC(C)=O)cc3)c2N(C)C23CC1C1(C)c4c(C)nn(-c5ccc(NC(C)=O)cc5)c4N(C)C(C)(CC12)C3 (stereo unspecified) land in?
Response: b1

Query: Lab note: which band did Cn1cc(Nc2nccc(-c3ccc(N4CCCC4)c(C#N)c3)n2)cn1 land in?
Response: b1

Query: Lab note: which band did Clc1cnc(Nc2ccc(OCCN3CCCC3)cc2)nc1NCc1ccco1 land in?
Response: b1

Query: Lab note: which band did CN(C)c1ccc2cc(-c3ccc(Cl)c(Cl)c3)c(N)nc2c1 land in?
Response: b1

Query: Lab note: which band did COc1ccc(-c2nc3ccccn3c2/C=C/C(=O)c2cc(OC)c(OC)c(OC)c2)cc1 land in?
Response: b1

Query: Lab note: which band did O=C1Nc2ccccc2/C1=N/N=C/c1ccc(OC2OC(CO)C(O)C(O)C2O)cc1 (stereo unspecified) land in?
Response: b2

Query: Lab note: which band did C=CCN1C(=O)[C@]2(SC1=S)[C@H](c1cccc(Cl)c1)CN(C)[C@]21C(=O)NC2C=CC(Cl)=C[C@H]21 (stereo partly specified) land in?
Response: b1

Query: Lab note: which band did O=C1N(c2ccccc2)C(=S)N[C@]12[C@H](c1ccccc1)C1CCCN1[C@]21C(=O)NC2C=CC(Cl)=C[C@H]21 (stereo partly specified) land in?
Response: b1

Query: Lab note: which band did Cn1nnnc1-c1ccc(N)cc1 land in?
Response: b2

Query: Lab note: which band did O=C(CC12CC3CC(CC(C3)C1)C2)NCCOCCOCCNC(=O)c1cc2c(o1)C(=O)c1ccccc1C2=O land in?
Response: b0

Query: Lab note: which band did COc1cc(-c2ccc(-c3ccc(C(=N)N)nc3)s2)cc(OC)c1OC land in?
Response: b1

Query: Lab note: which band did Cc1ccc(NSc2ccccc2[N+](=O)[O-])cc1 land in?
Response: b0

Query: Lab note: which band did CN(C)c1ccc(/C=C/c2c(F)cccc2F)cc1 land in?
Response: b1

Query: Lab note: which band did CCCCS(=O)(=O)Oc1ccc(-c2nc(C)c(C(=O)OCC)s2)cc1C=O land in?
Response: b1
